Target: D(2) dopamine receptor (Rattus norvegicus, UniProt P61169)
Sequence (P61169 whole entry): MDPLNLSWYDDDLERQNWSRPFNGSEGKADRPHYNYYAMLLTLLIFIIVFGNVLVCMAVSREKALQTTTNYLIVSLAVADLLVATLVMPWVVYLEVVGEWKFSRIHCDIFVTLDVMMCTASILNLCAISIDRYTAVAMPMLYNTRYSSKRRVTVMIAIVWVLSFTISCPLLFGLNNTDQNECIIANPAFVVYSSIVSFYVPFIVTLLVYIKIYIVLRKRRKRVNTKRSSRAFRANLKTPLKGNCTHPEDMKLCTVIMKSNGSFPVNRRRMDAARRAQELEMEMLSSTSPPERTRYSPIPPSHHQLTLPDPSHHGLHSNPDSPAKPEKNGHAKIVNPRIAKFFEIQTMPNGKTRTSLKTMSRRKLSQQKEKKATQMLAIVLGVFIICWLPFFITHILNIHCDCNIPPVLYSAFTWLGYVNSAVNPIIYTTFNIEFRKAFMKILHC
Assay: Displacement of [3H]spiperone from rat striatal homogenate dopamine receptor D2
REPORTED_ENDPOINT: pKi
Please note pKi is a logarithmic value: minus log10 of concentration in mol/L. Answer with that number alone.

Example compounds with recorded pKi:
Entry COc1cc2c(cc1O)CCN(C)[C@H]1CCc3ccccc3[C@H]21 has what pKi?
5.19

Thanks! And CN1CCc2ccc(O)cc2[C@H]2c3ccccc3CC[C@@H]21 ?
5.10

Thanks! And Cc1cc2c(cc1O)[C@H]1c3ccccc3CC[C@@H]1N(C)CC2 ?
5.82

API: the following record is the query input.
Entry COc1cc2c(cc1O)[C@H]1c3ccccc3CC[C@@H]1N(C)CC2 has what pKi?
5.61

---

Molecular target: D(1A) dopamine receptor (Rattus norvegicus)
Sequence (P18901 whole entry): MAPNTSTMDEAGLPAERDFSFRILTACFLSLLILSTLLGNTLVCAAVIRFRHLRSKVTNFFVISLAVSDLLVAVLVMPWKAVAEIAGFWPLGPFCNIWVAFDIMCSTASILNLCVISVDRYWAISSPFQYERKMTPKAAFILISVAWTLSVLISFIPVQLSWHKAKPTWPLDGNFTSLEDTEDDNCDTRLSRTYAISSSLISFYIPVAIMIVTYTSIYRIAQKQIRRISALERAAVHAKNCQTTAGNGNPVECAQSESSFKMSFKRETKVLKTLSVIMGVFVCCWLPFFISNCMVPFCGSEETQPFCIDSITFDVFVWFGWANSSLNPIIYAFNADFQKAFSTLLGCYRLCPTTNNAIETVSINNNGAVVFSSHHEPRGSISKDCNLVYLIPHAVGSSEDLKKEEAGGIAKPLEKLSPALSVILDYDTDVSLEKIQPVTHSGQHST
Assay: Inhibition of [3H]SCH-23390 binding to rat striatal homogenate dopamine receptor D1
# pKi per record follows
Please note pKi is a logarithmic value: minus log10 of concentration in mol/L. Answer with that number alone.

Example molecules with recorded pKi:
Entry CN1CCc2cc(Cl)c(O)cc2[C@@H]2c3ccccc3CC[C@@H]21 has what pKi?
6.29

Thanks! And COc1cc2c(cc1O)[C@@H]1c3ccccc3CC[C@@H]1N(C)CC2 ?
5.38

Thanks! And CN1CCc2cc(Cl)c(O)cc2[C@H]2c3ccccc3CC[C@@H]21 ?
8.72

Thanks! And Cc1cc2c(cc1O)[C@H]1c3ccccc3CC[C@@H]1N(C)CC2 ?
8.15

Thanks! And CN1CCc2cc(Cl)c(O)cc2[C@H]2c3ccccc3CC[C@H]21 ?
6.05

Next:
Entry COc1cc2c(cc1O)CCN(C)[C@H]1CCc3ccccc3[C@@H]21 has what pKi?
4.61

Thanks! And CN1CCc2ccc(O)cc2[C@H]2c3ccccc3CC[C@@H]21 ?
7.14
